All figures here come from patent US20070149763A1.

# measured_on: BACE (recombinant human BACE catalytic domain, expressed in CHO cells as BACE-T-IgG, IgG1 removed with thrombin) (human) (UniProt P56817)
# Sequence (P56817 43-460 limits assumed, form in doubt): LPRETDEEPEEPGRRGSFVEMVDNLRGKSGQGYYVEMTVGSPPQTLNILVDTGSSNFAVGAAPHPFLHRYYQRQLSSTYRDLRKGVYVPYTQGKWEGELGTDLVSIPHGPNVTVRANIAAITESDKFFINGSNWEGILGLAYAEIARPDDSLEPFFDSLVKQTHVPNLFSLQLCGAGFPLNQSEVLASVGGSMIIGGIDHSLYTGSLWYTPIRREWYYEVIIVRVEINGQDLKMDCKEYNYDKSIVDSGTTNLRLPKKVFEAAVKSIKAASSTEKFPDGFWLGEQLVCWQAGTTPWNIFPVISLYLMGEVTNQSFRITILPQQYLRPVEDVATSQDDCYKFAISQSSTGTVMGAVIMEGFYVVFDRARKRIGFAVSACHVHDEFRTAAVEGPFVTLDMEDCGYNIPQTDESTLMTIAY
# assay_explanation: fluorescence anisotropy, BACE titrated into 10 nM Molecule Y1, no OM99-2, fit to 1:1 binding (error 2.1556); the text prints this value rounded (57 / 58 nM)
Where no end group is shown, it is not given here.
readout_label: pKd
Please express pKd as -log10 of the molar concentration.

Task item: Which pKd is listed for YPYFIPL (not fully specified (N-terminus, C-terminus)) [Molecule Y1 (YPYFIPL with C-terminal Alexa488)] ?
Reply: 7.24
